# Test system: MCF-7 cells
# Format: cell-based
measurement-kind: CC50

INSERT INTO measurements (molecule, measurement) VALUES
  ('CC(C)(C)c1ccc(CNC2CCN(Cc3ccccc3)CC2)cc1 [AOH-20]', '3 to 40 µM'),
  ('CCN(C(=O)Nc1cccc(C(F)(F)F)c1)C(C)c1nc2ccccc2c(=O)n1-c1ccc(F)cc1 (stereo not drawn) [AOH-59]', '3 to 40 µM'),
  ('CCCCNC(=O)c1cc2oc(C)cc2n1Cc1cc(C)ccc1C [AOH-36]', '3 to 40 µM');
